Test system: Yap1 mRNA
method.notes: Dose-dependent inhibition of human Yap1 in SNU-449 cells (Example 9, RTS36584)
Format: cell-based
test.context: 31.3 nM, free uptake, approximately 48 hours
Strand notation (5' to 3'): a small letter for the sugar, then the base; units joined by * are phosphorothioate-linked, units joined directly phosphodiester-linked; [ ] holds rarer units or linkages, { } end groups; capitals alone tell only the bases. e = 2'-O-(2-methoxyethyl) (MOE); k = constrained ethyl (cEt); [5mC] = 5-methylcytosine; d = 2'-deoxy (DNA); m = 2'-O-methyl
// not satisfied strictly below 70 % UTC in % UTC (Yap1 mRNA); satisfied otherwise

substance | experimental.system | group.label
1200794 (kA*kG*kA*dG*dT*mA*dT*dG*dT*dG*dG*d[5mC]*dA*kA*kT*kA; antisense) [compound 1200794] | Yap1 mRNA | satisfied
1198507 (kT*kT*dA*dT*dA*dT*dG*dG*dT*dT*dT*eT*kG*eT*kG*eT; antisense) [compound 1198507] | Yap1 mRNA | satisfied
1198354 (kA*kA*kG*dT*dG*dT*dA*dT*dG*dT*d[5mC]*dA*kG*eA*kA*eG) [compound 1198354] | Yap1 mRNA | not satisfied
1198664 (kG*k[5mC]*dT*dT*dT*dG*dG*dA*dA*dG*dA*dT*k[5mC]*eT*kG*eA; antisense) [compound 1198664] | Yap1 mRNA | not satisfied
1198877 (kT*kT*dA*dA*dA*dG*dT*dG*dT*dA*dT*kG*eT*k[5mC]*eA*kG; antisense) [compound 1198877] | Yap1 mRNA | not satisfied

Reported % UTC (Yap1 mRNA) at or above 70 % UTC? 1198543 (kA*kT*kT*dG*dT*d[5mC]*dT*d[5mC]*dA*dT*dG*d[5mC]*k[5mC]*kT*kT*eA; antisense) [compound 1198543]
satisfied

# bool: % UTC (Yap1 mRNA) of 1197229 (kG*kG*kA*dA*mA*dT*dT*dG*dT*d[5mC]*dT*d[5mC]*dA*kT*kG*k[5mC]; antisense) [compound 1197229] >= 70 % UTC
not satisfied

API: above_or_equal(metric=% UTC (Yap1 mRNA), cutoff=70 % UTC) for item 1198553 (kT*kA*kG*dA*dG*dT*dA*dT*dG*dT*dG*dG*k[5mC]*kA*kA*eT; antisense) [compound 1198553]
not satisfied

Evaluate 1197223 (kT*kA*kA*dG*dT*dA*dA*dG*dG*dT*dT*dT*d[5mC]*k[5mC]*k[5mC]*kA; antisense) [compound 1197223] : % UTC (Yap1 mRNA) at minimum 70 % UTC?
satisfied

Does 1198874 (kA*kA*dG*dT*dG*dT*dA*dT*dG*dT*d[5mC]*kA*eG*kA*eA*kG) [compound 1198874] have a reported % UTC (Yap1 mRNA) of at least 70 % UTC?
not satisfied

Check this substance for % UTC (Yap1 mRNA) at or above 70 % UTC: 1198412 (kT*dT*dA*dG*dG*dA*dT*dG*d[5mC]*dA*dT*kG*eG*kT*eT*kT; antisense) [compound 1198412]
satisfied

* * *

Tested on: Yap1 mRNA
method.notes: Dose-dependent inhibition of human Yap1 in A-431 cells (Example 8, 10,000 cells per well, RTS4814)
Type: cell-based
test.context: A-431 cells; Yap1 mRNA
Strand notation (5' to 3'): a small letter for the sugar, then the base; units joined by * are phosphorothioate-linked, units joined directly phosphodiester-linked; [ ] holds rarer units or linkages, { } end groups; capitals alone tell only the bases. k = constrained ethyl (cEt); [5mC] = 5-methylcytosine; d = 2'-deoxy (DNA)
value.kind: IC50 (nM)
One number for each entry, in nM.

Below are worked cases with known answers.
substance | unit.info | IC50
1074421 (kT*kG*kA*dT*dT*d[5mC]*dT*dT*dT*dA*dG*dA*dG*k[5mC]*k[5mC]*kA; antisense) [compound 1074421] | nM | 40
1075222 (kG*kT*kA*dT*dT*dT*dG*dG*dA*d[5mC]*dA*dA*d[5mC]*kT*k[5mC]*kT; antisense) [compound 1075222] | nM | 100
1076534 (kA*k[5mC]*kT*dA*dT*dA*dA*dA*dG*d[5mC]*dA*dA*dT*kG*k[5mC]*kG; antisense) [compound 1076534] | nM | 200

List reported IC50 for each of these substances:
1. 1074678 (antisense kT*kA*kA*dT*d[5mC]*dT*dG*dT*dG*dG*d[5mC]*dT*dA*k[5mC]*kT*kG) [compound 1074678]
2. 1075701 (kA*kA*kT*dT*dA*d[5mC]*dT*dA*dG*dA*dG*dG*d[5mC]*kT*kT*k[5mC]; antisense) [compound 1075701]

1. 100
2. 100
